Molecular target: Aβ42 (amyloid β-protein 42) (Homo sapiens)
Sequence (P05067 672-713): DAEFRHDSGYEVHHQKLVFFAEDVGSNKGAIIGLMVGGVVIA
Assay: ThT fluorescence fibrillogenesis assay
parameter.measured: IC50 (nM)

[[record]]
line_notation = "O=C(O[C@@H]1Cc2c(O)cc(O)cc2O[C@@H]1c1cc(O)c(O)c(O)c1)c1cc(O)c(O)c(O)c1"
parameter_measured = "IC50"
observed_value = 2400

[[record]]
line_notation = "Oc1ccc2c(c1)OC[C@]1(O)Cc3cc(O)c(O)cc3[C@H]21"
parameter_measured = "IC50"
observed_value = 1500

